The origin of these recorded values is patent US12239661B2.

ASSAY_PROCEDURE: In vivo CT of filler nodule volume, density and 3D shape after test solutions 0-8 (Example 3)
SETTINGS: Example 3; mean
VALUE_KIND: Change in Volume as percent of Injected Volume, Day 7 (%)

{"columns": ["COMPOUND", "MEASURED"],
 "data": [
  ["OC[C@H]1O[C@@](CO)(O[C@H]2O[C@H](CO)[C@@H](O)[C@H](O)[C@H]2O)[C@@H](O)[C@@H]1O", 199.72],
  ["O.O.O=P([O-])(O)O.[Na+] [sol 2, Sodium dihydrogen phosphate dihydrate]", 201.97],
  ["O.O.O.O.O.O.O.O=S(=O)([O-])[O-].[Mg+2] [sol 5, Magnesium sulfate heptahydrate]", 202.32]
]}

====

Entries and their Change in Volume as percent of Injected Volume, Day 3
ASSAY_PROCEDURE: In vivo CT of filler nodule volume, density and 3D shape after test solutions 0-8 (Example 3)
SETTINGS: Example 3; mean
Marks after values point to notes of the source that are not given here.
VALUE_KIND: Change in Volume as percent of Injected Volume, Day 3

{"columns": ["COMPOUND", "MEASURED"],
 "data": [
  ["O.O.O=P([O-])(O)O.[Na+] [sol 2, Sodium dihydrogen phosphate dihydrate]", "201.11%"],
  ["O.O.O.O.O.O.O.O=S(=O)([O-])[O-].[Mg+2] [sol 5, Magnesium sulfate heptahydrate]", "206.26* percent"],
  ["OC[C@H]1O[C@@](CO)(O[C@H]2O[C@H](CO)[C@@H](O)[C@H](O)[C@H]2O)[C@@H](O)[C@@H]1O", "207.85%"],
  ["[Ca+2].[Cl-].[Cl-] [sol 4, Calcium chloride]", "174.24* percent"],
  ["OCC(O)CO", "197.65* percent"],
  ["CC(=O)[O-].[Na+] [sol 3, Sodium acetate]", "197.50* percent"]
]}

====

ASSAY_PROCEDURE: In vivo CT of filler nodule volume, density and 3D shape after test solutions 0-8 (Example 3)
SETTINGS: Example 3; mean
VALUE_KIND: Change in Volume as percent of Injected Volume, Day 0 + 2 h

{"columns": ["MOLECULE", "MEASURED"],
 "data": [
  ["OC[C@H]1O[C@@](CO)(O[C@H]2O[C@H](CO)[C@@H](O)[C@H](O)[C@H]2O)[C@@H](O)[C@@H]1O", "167.63%"],
  ["[Ca+2].[Cl-].[Cl-] [sol 4, Calcium chloride]", "162.46%"],
  ["OCC(O)CO", "156.43%"],
  ["O.O.O=P([O-])(O)O.[Na+] [sol 2, Sodium dihydrogen phosphate dihydrate]", "151.58%"],
  ["CC(=O)[O-].[Na+] [sol 3, Sodium acetate]", "154.89%"],
  ["O.O.O.O.O.O.O.O=S(=O)([O-])[O-].[Mg+2] [sol 5, Magnesium sulfate heptahydrate]", "159.33%"]
]}

====

ASSAY_PROCEDURE: In vivo CT of filler nodule volume, density and 3D shape after test solutions 0-8 (Example 3)
SETTINGS: Example 3; mean
Marks after values point to notes of the source that are not given here.
Overview of recorded Change in Volume as percent of Injected Volume, Day 7 for various compounds
VALUE_KIND: Change in Volume as percent of Injected Volume, Day 7

{"columns": ["COMPOUND", "MEASURED"],
 "data": [
  ["OCC(O)CO [sol 6, Glycerol]", "197.62* percent"],
  ["[Ca+2].[Cl-].[Cl-] [sol 4, Calcium chloride]", "175.91* percent"],
  ["CC(=O)[O-].[Na+] [sol 3, Sodium acetate]", "189.13* percent"]
]}
